system: Bacillus subtilis (RCMB 010067); test: MIC by serial dilution method; type: cell-based; settings: RCMB010067, Gm+ve, read-out: Minimum inhibitory concentration, MIC, B.S
Quantity kind: MIC (µg/mL)

Molecule	MIC [µg/mL]
N#CC1=C(N)Oc2cc(O)c(N=Nc3ccc(O)cc3)cc2C1c1ccccc1F (centres unmarked) [13j]	0.49
N#CC1=C(N)Oc2cc(O)c(N=Nc3ccc(C(=O)O)cc3)cc2C1c1ccccc1F (centres unmarked) [13e]	0.06

(1) O=[N+]([O-])c1ccc(N=Nc2ccc(O)cc2O)cc1 [12c, 4-(4-Nitro-phenylazo)-benzene-1,3-diol]
(2) CC(C)(C)c1ccc(C2C(C#N)=C(N)Oc3cc(O)c(N=Nc4ccc(O)cc4)cc32)cc1 (centres unmarked) [13i]
(3) N#CC1=C(N)Oc2c(N)cc3ccccc3c2C1c1ccc(Cl)cc1 (centres unmarked)
(4) N#CC1=C(N)Oc2cc(O)c(N=Nc3cccc(O)c3)cc2C1c1ccccc1F (centres unmarked) [13k]
Exercise: Falling order of MIC, please. Labels, requested order.
Key: 1, 4, 2, 3
(1: 7.81 µg/mL, 4: 0.49 µg/mL, 2: 0.12 µg/mL, 3: 0.007 µg/mL)

(I) COc1ccc(C2C(C#N)=C(N)Oc3c(N)cc4ccccc4c32)cc1 (centres unmarked)
(II) Cc1ccc(C2C(C#N)=C(N)Oc3c(N)cc4ccccc4c32)cc1 (centres unmarked)
Exercise: Given the two records I and II , choose the one whose MIC value is lower. Lab note: record the label of whichever item you select.
Key: I
(I: 0.007 µg/mL, II: 7.81 µg/mL)
